ASSAY_NAME: Inhibition of IL-1beta, IFN-gamma and TNF-alpha-induced apoptosis of rat INS-1E cells assessed as restoring cell viability after 48 hrs by luciferase based CellTiter-Glo assay
Assay type: functional
pEC50: −log10 of the molar value.
The compounds listed here are annotated with their pEC50.

>  <SMILES_NOTATION>
CC(C)N1C[C@@H](C)[C@H](CN(C)S(=O)(=O)c2ccc3c(c2)OCCO3)Oc2c(NC(=O)Nc3cccc4ccccc34)cccc2C1=O

>  <pEC50>
5.55

$$$$
>  <SMILES_NOTATION>
COc1cccc(S(=O)(=O)N(C)C[C@@H]2Oc3c(NC(=O)Nc4cccc5ccccc45)cccc3C(=O)N([C@@H](C)CO)C[C@H]2C)c1

>  <pEC50>
< 4.70

$$$$
>  <SMILES_NOTATION>
C[C@@H]1CN([C@@H](C)CO)C(=O)c2cccc(NC(=O)Nc3cccc4ccccc34)c2O[C@H]1CN(C)S(=O)(=O)c1ccc(Oc2ccccc2)cc1

>  <pEC50>
< 4.70

$$$$
